systemTested: Serotonin 3 (5-HT3) receptor
testMethodNotes: Tested for 5-hydroxytryptamine 3 receptor antagonist activity
Format: functional
outcomeMeasure: Ki (nM)

[[record]]
molecularstring = "CNC1(CNC(=O)c2cc(Cl)c(N)cc2OC)CCCC1"
outcomemeasure = "Ki"
unit = "nM"
experimentalresult = 9


###

systemTested: 5-hydroxytryptamine receptor 4 (Mus musculus) (UniProt P97288)
Sequence (P97288 whole entry, looked up): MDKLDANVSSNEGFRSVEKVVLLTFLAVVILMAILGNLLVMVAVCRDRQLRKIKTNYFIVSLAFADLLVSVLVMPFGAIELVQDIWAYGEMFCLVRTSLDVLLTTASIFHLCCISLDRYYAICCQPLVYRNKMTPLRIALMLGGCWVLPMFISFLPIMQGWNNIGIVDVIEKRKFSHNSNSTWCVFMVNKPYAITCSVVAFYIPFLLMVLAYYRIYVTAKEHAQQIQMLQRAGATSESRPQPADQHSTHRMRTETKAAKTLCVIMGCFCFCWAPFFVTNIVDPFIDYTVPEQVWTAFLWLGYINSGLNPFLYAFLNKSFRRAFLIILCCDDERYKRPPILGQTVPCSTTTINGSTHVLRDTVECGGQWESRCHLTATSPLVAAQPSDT
testMethodNotes: Tested for 5-hydroxytryptamine 4 binding affinity against cisapride
EC50: recorded values
outcomeMeasure: EC50 (nM)

[[record]]
compound = "COc1cc(N)c(Cl)cc1C(=O)NC1CCN2C(C)CCCC2C1 (configuration not stated) [BRL-20627]"
systemtested = "5-hydroxytryptamine receptor 4 (Mus musculus) (UniProt P97288)"
outcomemeasure = "EC50"
experimentalresult = 72.4

[[record]]
compound = "COc1cc(N)c(Cl)cc1C(=O)NC1CC2CCC(C1)N2C (configuration not stated)"
systemtested = "5-hydroxytryptamine receptor 4 (Mus musculus) (UniProt P97288)"
outcomemeasure = "EC50"
experimentalresult = 72.4


###

systemTested: 5-hydroxytryptamine receptor 3A (Homo sapiens, UniProt P46098)
Sequence (P46098 whole entry): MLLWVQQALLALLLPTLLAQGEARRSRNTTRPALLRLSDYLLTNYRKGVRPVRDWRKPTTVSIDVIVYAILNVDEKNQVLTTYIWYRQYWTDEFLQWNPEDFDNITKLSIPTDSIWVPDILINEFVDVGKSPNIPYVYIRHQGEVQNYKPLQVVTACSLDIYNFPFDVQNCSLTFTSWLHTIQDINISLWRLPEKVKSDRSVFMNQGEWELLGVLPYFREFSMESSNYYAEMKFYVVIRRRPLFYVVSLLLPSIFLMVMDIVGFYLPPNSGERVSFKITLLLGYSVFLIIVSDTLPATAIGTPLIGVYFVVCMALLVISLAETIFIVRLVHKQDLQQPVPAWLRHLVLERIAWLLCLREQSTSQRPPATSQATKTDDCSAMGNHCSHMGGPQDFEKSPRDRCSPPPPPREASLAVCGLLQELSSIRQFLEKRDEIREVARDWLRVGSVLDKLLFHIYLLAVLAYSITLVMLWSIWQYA
testMethodNotes: Compound was tested for 5-hydroxytryptamine 3 receptor binding affinity
outcomeMeasure: Ki (nM)

[[record]]
molecularstring = "COc1cc(N)c(Cl)cc1C(=O)NC[C@@H]1CCN2CCC[C@@H]12"
experimentalresult = 152


###

systemTested: Serotonin 3 (5-HT3) receptor
testMethodNotes: Compound was tested for 5-hydroxytryptamine 3 receptor binding affinity
Type: protein-complex assay
outcomeMeasure: Ki (nM)

[[record]]
compound = "COc1cc(N)c(Cl)cc1C(=O)NC1CCN(CCCOc2ccc(F)cc2)CC1OC (stereo unspecified) [CISAPRIDE]"
systemtested = "Serotonin 3 (5-HT3) receptor"
experimentalresult = 152


###

EC50: recorded values
systemTested: 5-hydroxytryptamine receptor 4 (Mus musculus) (UniProt P97288)
testMethodNotes: Tested for 5-hydroxytryptamine 4 binding affinity against renzapride
outcomeMeasure: EC50 (µM)

[[record]]
compound = "COc1cc(N)c(Cl)cc1C(=O)NC1CC2CCC(C1)N2C (configuration not stated)"
systemtested = "5-hydroxytryptamine receptor 4 (Mus musculus) (UniProt P97288)"
experimentalresult = 0.126

[[record]]
compound = "COc1cc(N)c(Cl)cc1C(=O)NC1CCN2C(C)CCCC2C1 (configuration not stated)"
systemtested = "5-hydroxytryptamine receptor 4 (Mus musculus) (UniProt P97288)"
experimentalresult = 0.126


###

systemTested: 5-hydroxytryptamine receptor 4 (Rattus norvegicus)
Sequence (Q62758 whole entry): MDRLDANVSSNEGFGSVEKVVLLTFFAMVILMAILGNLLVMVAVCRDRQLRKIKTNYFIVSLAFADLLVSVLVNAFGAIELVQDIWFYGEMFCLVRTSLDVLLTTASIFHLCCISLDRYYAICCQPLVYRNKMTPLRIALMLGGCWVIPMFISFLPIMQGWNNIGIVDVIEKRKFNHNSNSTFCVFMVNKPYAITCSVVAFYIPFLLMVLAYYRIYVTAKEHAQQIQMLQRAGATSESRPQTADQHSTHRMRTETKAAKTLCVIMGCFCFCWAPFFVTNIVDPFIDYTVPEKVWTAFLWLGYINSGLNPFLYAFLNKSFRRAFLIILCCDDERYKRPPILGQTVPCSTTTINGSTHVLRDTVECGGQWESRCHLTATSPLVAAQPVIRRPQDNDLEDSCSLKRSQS
testMethodNotes: Efficient 5-hydroxytryptamine 4 agonist in the rat tunica muscularis mucosae
pEC50: −log10 of the molar value.
outcomeMeasure: pEC50

[[record]]
molecularstring = "COc1cc(N)c(Cl)cc1C(=O)NC[C@@H]1CCN2CCC[C@@H]12"
experimentalresult = 7.63


###

systemTested: 5-hydroxytryptamine receptor 3A (Homo sapiens)
testMethodNotes: Tested for 5-hydroxytryptamine 3 receptor agonist activity
Format: functional
pKi: −log10 of the molar value.
outcomeMeasure: pKi

[[record]]
molecularstring = "Nc1cc2c(cc1Cl)C(=O)NC1CCN(CCOCCO2)CC1"
experimentalresult = 7.27


###

systemTested: 5-hydroxytryptamine receptor 4 (Homo sapiens, UniProt Q13639)
Sequence (Q13639 whole entry): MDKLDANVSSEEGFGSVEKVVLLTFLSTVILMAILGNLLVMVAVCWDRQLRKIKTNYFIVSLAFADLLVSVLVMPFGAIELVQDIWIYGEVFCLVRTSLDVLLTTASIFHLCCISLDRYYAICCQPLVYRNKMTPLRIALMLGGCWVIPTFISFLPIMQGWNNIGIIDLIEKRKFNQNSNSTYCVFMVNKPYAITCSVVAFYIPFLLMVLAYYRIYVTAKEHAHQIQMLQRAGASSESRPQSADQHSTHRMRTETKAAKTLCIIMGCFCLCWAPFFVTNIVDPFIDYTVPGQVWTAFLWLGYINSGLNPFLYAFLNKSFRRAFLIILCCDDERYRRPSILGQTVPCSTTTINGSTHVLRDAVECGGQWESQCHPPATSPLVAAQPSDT
testMethodNotes: Tested for 5-hydroxytryptamine 4 receptor antagonist activity
Assay type: functional
outcomeMeasure: Ki (nM)

[[record]]
molecularstring = "CC(C)N1CCN(CCNC(=O)n2c(=O)n(C3CC3)c3ccccc32)CC1"
outcomemeasure = "Ki"
experimentalresult = 16.6


###

pEC50: recorded values
systemTested: 5-hydroxytryptamine receptor 4 (Mus musculus)
testMethodNotes: Tested for 5-hydroxytryptamine 4 binding affinity against zacopride
pEC50: −log10 of the molar value.
outcomeMeasure: pEC50

[[record]]
compound = "COc1cc(N)c(Cl)cc1C(=O)NC1CCN2C(C)CCCC2C1 (configuration not stated) [BRL-20627]"
outcomemeasure = "pEC50"
experimentalresult = 5.95

[[record]]
compound = "COc1cc(N)c(Cl)cc1C(=O)NC1CC2CCC(C1)N2C (configuration not stated)"
outcomemeasure = "pEC50"
experimentalresult = 5.95

